assay: chemical genetic growth profiling, strain panel (AID 1159580);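 further: tested at 20 µM; growth read once vehicle control cultures reached saturation at 30 °C; 1 = growth at the plate median or of vehicle wells; lower values mean less growth of the strain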; conditions: S. cerevisiae deletion strains, growth OD, locus YDR226W, strain ADK1
The whole screen tested about 5,500 compounds, of which about 2,000 (36%) were called active. Roughly 18% stayed inconclusive and do not appear here. No stated cut-off is given here; in the data, active means normalized growth mostly below about 0.91 (no sharp cut-off); inconclusive means no clear call, values can overlap the other calls; inactive means mostly above about 0.92. The list shows a part of the results.
Choose one outcome from this list and give only that: active, inactive

COMPOUND	CATEGORY_LABEL
CCCN(CCC)C(=S)NC(=O)c1cccc([N+](=O)[O-])c1	inactive
CC(C)(C)c1ccc(C(=N)SC(C(=O)C(F)(F)F)c2ccccc2)cc1 (stereo not given)	inactive
Cc1c(C(=O)Sc2ccc(F)cc2F)sc2nc(C(F)(F)F)nn12	active

For CC(=O)c1ccc(Cl)c(NS(=O)(=O)c2cc(Cl)c(Cl)cc2Cl)c1 , which call appears in the assay record?
active

Assay result, entry CC(C)c1ccc(COC(=O)Nc2ccc(CSc3ccc(Cl)cc3)o2)cc1 — outcome?
inactive

# lookup: test call for N/C(CCSc1ccc(Cl)cc1)=N/OC(=O)Nc1ccc(Cl)cc1
inactive

Outcome? Cc1nn(C)c(C(=O)Sc2ccc(OC(F)(F)F)cc2)c1[N+](=O)[O-]
inactive

Which outcome did this test record for the compound O=[N+]([O-])c1ccc(ON=C2CCCCC2)c([N+](=O)[O-])c1 ?
inactive

Identify the outcome logged in this assay for the compound shown: C/C(Cc1nnn(-c2cc(C)on2)n1)=N/OC(=O)Nc1ccc(Cl)cc1
inactive

Lab log entry: O=C(Oc1cccc2[nH]ccc12)c1ccc(C(F)(F)F)cc1 — outcome as called in the assay?
inactive

Test call for this compound, please: Cc1cc(C)cc(Sc2ccc3nnc(-c4ccccc4)n3n2)c1
inactive

Tell me the recorded outcome of this test for Oc1c(Cl)cc(Cl)cc1C=Nc1nc(-c2ccc3ccccc3c2)cs1 .
inactive

Identify the outcome logged in this assay for the compound shown: N#C/C(=N/Nc1ccc(F)cc1)C(=O)c1ccccc1
active

Hi, sorry to bother you, what did the test record for O=C(NCc1ccc(Cl)c(Cl)c1)c1cccnc1OCC(F)(F)F ?
inactive

# outcome recorded in this test, key = O=C(Nc1cccc(C(F)(F)F)c1)c1cncc(C#Cc2ccccc2)c1
inactive

---

test: chemical genetic growth profiling, strain panel (AID 1159580);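 further: tested at 20 µM; growth read once vehicle control cultures reached saturation at 30 °C; 1 = growth at the plate median or of vehicle wells; lower values mean less growth of the strain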; conditions: S. cerevisiae deletion strains, growth OD, locus YCL011C, strain gbp2, hits give low values
The campaign covered roughly 5,500 compounds. About 2,000 (36%) were called active. Not shown: some 18% with an inconclusive outcome. Some of the results follow.
Entries annotated with measured normalized growth
Answer field: number only, no words.

COMPOUND	normalized growth
O=C(/C=C/c1ccc(O)c(O)c1)OCCc1ccccc1	0.751
O=C(NC(=O)c1ccccc1Cl)Nc1ccc(OC(F)(F)F)cc1	1.04
O=C1CCC(N2C(=O)c3ccccc3C2=O)C(=O)N1 (centres undefined)	1.03
O=C(O)/C=C/c1ccc(O)c(O)c1	1.01
COC(=O)c1cc(=O)c(O)c2c(O)c(O)ccc2c1	1
O=S(=O)(O)c1cc(N=C=S)ccc1/C=C/c1ccc(N=C=S)cc1S(=O)(=O)O	1.02
Nc1nc(=S)c2[nH]cnc2[nH]1	0.971
Oc1cc(O)c2c(c1)O[C@H](c1cc(O)c(O)c(O)c1)[C@H](O)C2	1.02
CN1CC(=O)N=C1N	1.03
COc1ccc2c(c1)OC1(O)COc3cc(OC)c(OC)cc3C1=C2 (centres undefined)	0.983

According to the records, this compound COc1ccc2c(c1)OC/C(=C\c1ccc(OC)c(O)c1)C2=O displays normalized growth of 0.857

The compound listed as COc1ccc([C@H]2Oc3c(I)c(OC)cc(OC)c3C[C@@H]2O)cc1OC shows normalized growth equal to 1.02

Source of measurements: PubChem BioAssay AID1159580
